Biological target: CCDC6-RET-BaF3 (Homo sapiens)
Construct: fused on or other part: Q16204 (Coiled-coil domain-containing protein 6)
Sequence (P07949 whole entry, change not shown, the tested form may be a part): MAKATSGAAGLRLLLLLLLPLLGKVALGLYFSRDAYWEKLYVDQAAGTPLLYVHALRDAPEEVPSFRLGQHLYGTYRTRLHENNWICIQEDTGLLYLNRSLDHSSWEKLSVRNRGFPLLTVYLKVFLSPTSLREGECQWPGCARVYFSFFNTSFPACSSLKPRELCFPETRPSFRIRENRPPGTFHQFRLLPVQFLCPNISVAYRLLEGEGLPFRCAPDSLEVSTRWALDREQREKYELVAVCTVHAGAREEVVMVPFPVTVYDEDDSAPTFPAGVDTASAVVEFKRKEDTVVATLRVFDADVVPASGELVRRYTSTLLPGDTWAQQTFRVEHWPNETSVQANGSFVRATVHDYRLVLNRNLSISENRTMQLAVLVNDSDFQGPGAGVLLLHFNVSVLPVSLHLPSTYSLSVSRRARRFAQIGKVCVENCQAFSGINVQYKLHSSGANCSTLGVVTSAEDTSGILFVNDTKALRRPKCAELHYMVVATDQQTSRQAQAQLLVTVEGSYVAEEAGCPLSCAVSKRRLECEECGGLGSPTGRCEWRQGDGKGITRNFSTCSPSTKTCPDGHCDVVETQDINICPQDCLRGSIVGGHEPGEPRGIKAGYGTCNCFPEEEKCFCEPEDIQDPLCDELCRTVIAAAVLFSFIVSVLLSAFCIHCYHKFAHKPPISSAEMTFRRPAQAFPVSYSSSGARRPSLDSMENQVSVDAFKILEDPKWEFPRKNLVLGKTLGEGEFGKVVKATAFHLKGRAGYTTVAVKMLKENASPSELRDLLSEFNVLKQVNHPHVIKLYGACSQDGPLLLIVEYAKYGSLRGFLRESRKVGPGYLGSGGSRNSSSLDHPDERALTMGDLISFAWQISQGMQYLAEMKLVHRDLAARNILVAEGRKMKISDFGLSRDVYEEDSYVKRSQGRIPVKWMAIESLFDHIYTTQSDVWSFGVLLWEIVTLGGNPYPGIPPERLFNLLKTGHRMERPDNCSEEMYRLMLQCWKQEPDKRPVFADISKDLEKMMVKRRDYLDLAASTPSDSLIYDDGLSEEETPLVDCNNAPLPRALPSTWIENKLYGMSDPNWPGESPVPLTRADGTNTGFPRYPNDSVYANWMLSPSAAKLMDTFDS
Test: Growth inhibition of CCDC6-RET-BaF3 cells stably transfected with kinase (MTS)
Type: cell-based
Conditions: 48 h, read-out: CCDC6-RET (IC50/nM)
ASSAY READOUT: GI50 (nM)

Cc1ccc(Oc2cc(-c3ccncc3)nc3c2ccn3C)cc1C(=O)Nc1ccc(CN2CCN(C)CC2)c(C(F)(F)F)c1 = 472

[P] Cc1ccc(Oc2nc(-c3cccnc3)nc3cc[nH]c23)cc1NC(=O)c1ccc(CN2CCN(C)CC2)c(C(F)(F)F)c1
[Q] Cc1ccc(Oc2nc(-c3ccc(N)cc3)nc3c2ncn3C)cc1C(=O)Nc1ccc(CN2CCN(C)CC2)c(C(F)(F)F)c1
[R] Cc1ccc(Oc2nc(-c3ccncc3)nc3ccsc23)cc1NC(=O)c1ccc(CN2CCN(C)CC2)c(C(F)(F)F)c1
[S] CN1CCN(Cc2cc(NC(=O)c3cccc(Oc4nc(-c5ccncc5)nc5ccn(C)c45)c3)cc(C(F)(F)F)c2)CC1
Query: Rank descending by GI50. I would appreciate it if you listed the labels in the requested order.
Response: P, S, Q, R
(P: 5940 nM, S: 3230 nM, Q: 1400 nM, R: 3.08 nM)
